Please respond with reported Quantum Yield (%) n for every item in the list.
test: Quantum yield measurements; type: biochemical; settings: coelenterazine-n
Answer with a number only, understood to be in %.

What value of Quantum Yield (%) n has been recorded for this entry: C124A/A143M: RLuc mutant C124A/A143M (protein) MASKVYDPEQRKRMITGPQWWARCKQMNVLDSFINYYDSEKHAENAVIFLHGNAASSYLWRHVVPHIEPVARCIIPDLIGMGKSGKSGNGSYRLLDHYKYLTAWFELLNLPKKIIFVGHDWGAALAFHYSYEHQDKIKAIVHMESVVDVIESWDEWPDIEEDIALIKSEEGEKMVLENNFFVETMLPSKIMRKLEPEEFAAYLEPFKEKGEVRRPTLSWPREIPLVKGGKPDVVQIVRNYNAYLRASDDLPKMFIESDPGFFSNAIVEGAKKFPNTEFVKVKGLHFSQEDAPDEMGKYIKSFVERVLKNEQ 5.8

// query Quantum Yield (%) n value for entry C124A/S287L: RLuc mutant C124A/S287L (protein) MASKVYDPEQRKRMITGPQWWARCKQMNVLDSFINYYDSEKHAENAVIFLHGNAASSYLWRHVVPHIEPVARCIIPDLIGMGKSGKSGNGSYRLLDHYKYLTAWFELLNLPKKIIFVGHDWGAALAFHYSYEHQDKIKAIVHAESVVDVIESWDEWPDIEEDIALIKSEEGEKMVLENNFFVETMLPSKIMRKLEPEEFAAYLEPFKEKGEVRRPTLSWPREIPLVKGGKPDVVQIVRNYNAYLRASDDLPKMFIESDPGFFSNAIVEGAKKFPNTEFVKVKGLHFLQEDAPDEMGKYIKSFVERVLKNEQ 7.7

Given A55T/C124A: RLuc mutant A55T/C124A (protein) MASKVYDPEQRKRMITGPQWWARCKQMNVLDSFINYYDSEKHAENAVIFLHGNATSSYLWRHVVPHIEPVARCIIPDLIGMGKSGKSGNGSYRLLDHYKYLTAWFELLNLPKKIIFVGHDWGAALAFHYSYEHQDKIKAIVHAESVVDVIESWDEWPDIEEDIALIKSEEGEKMVLENNFFVETMLPSKIMRKLEPEEFAAYLEPFKEKGEVRRPTLSWPREIPLVKGGKPDVVQIVRNYNAYLRASDDLPKMFIESDPGFFSNAIVEGAKKFPNTEFVKVKGLHFSQEDAPDEMGKYIKSFVERVLKNEQ , state its recorded Quantum Yield (%) n. 5.7

Using the record for C124A/M253L: RLuc mutant C124A/M253L (protein) MASKVYDPEQRKRMITGPQWWARCKQMNVLDSFINYYDSEKHAENAVIFLHGNAASSYLWRHVVPHIEPVARCIIPDLIGMGKSGKSGNGSYRLLDHYKYLTAWFELLNLPKKIIFVGHDWGAALAFHYSYEHQDKIKAIVHAESVVDVIESWDEWPDIEEDIALIKSEEGEKMVLENNFFVETMLPSKIMRKLEPEEFAAYLEPFKEKGEVRRPTLSWPREIPLVKGGKPDVVQIVRNYNAYLRASDDLPKLFIESDPGFFSNAIVEGAKKFPNTEFVKVKGLHFSQEDAPDEMGKYIKSFVERVLKNEQ , report its Quantum Yield (%) n. 5.8
